System: Fonsecaea compacta
Assay: Antimicrobial activity against Fonsecaea compacta isolates
Format: functional
Measure: log10 of MIC (log10 of the value in µg/mL)

- Compound: "O=C(O)c1ccc(NCc2ccc(-c3ccc(OCC(O)(Cn4cncn4)c4ccc(F)cc4F)cc3)cc2)cc1 (stereo not given)"
  log10 of MIC: 0.00
- Compound: "O=C(Nc1ccc(-c2ccc(OCC(O)(Cn3cncn3)c3ccc(F)cc3F)cc2)cn1)c1ccc(CCl)cc1 (stereo not given)"
  log10 of MIC: 0.00
- Compound: "Oc1ccccc1CNc1ccc(-c2ccc(OCC(O)(Cn3cncn3)c3ccc(F)cc3F)cc2)cn1 (stereo not given)"
  log10 of MIC: -0.60
- Compound: "O=Cc1ccc(-c2ccc(OCC(O)(Cn3cncn3)c3ccc(F)cc3F)cc2)cc1 (stereo not given)"
  log10 of MIC: -0.60
- Compound: "ON=Cc1ccc(-c2ccc(OCC(O)(Cn3cncn3)c3ccc(F)cc3F)cc2)cc1 (stereo not given)"
  log10 of MIC: 0.00
- Compound: "OCc1ccc(-c2ccc(OCC(O)(Cn3cncn3)c3ccc(F)cc3F)cc2)cc1 (stereo not given)"
  log10 of MIC: 1.20
- Compound: "CCC(C)n1ncn(-c2ccc(N3CCN(c4ccc(OC[C@H]5CO[C@](Cn6cncn6)(c6ccc(Cl)cc6Cl)O5)cc4)CC3)cc2)c1=O (stereo not given in full)"
  log10 of MIC: -1.20
- Compound: "CC(=O)N1CCN(c2ccc(OCC3COC(Cn4ccnc4)(c4ccc(Cl)cc4Cl)O3)cc2)CC1 (stereo not given)"
  log10 of MIC: -0.60
- Compound: "OC(Cn1cncn1)(Cn1cncn1)c1ccc(F)cc1F"
  log10 of MIC: 1.20
- Compound: "COc1ccc(C(=O)Nc2ccc(-c3ccc(OCC(O)(Cn4cncn4)c4ccc(F)cc4F)cc3)cn2)cc1 (stereo not given)"
  log10 of MIC: -0.60
- Compound: "OC(COc1ccc(-c2ccc(NCc3ccccc3)nc2)cc1)(Cn1cncn1)c1ccc(F)cc1F (stereo not given)"
  log10 of MIC: 0.60
- Compound: "C[C@@H]1[C@H](O)[C@@H](C)/C=C/C=C/C=C/C=C/C=C/C=C/C=C/[C@H](O[C@@H]2O[C@H](C)[C@@H](O)[C@H](N)[C@@H]2O)C[C@@H]2O[C@](O)(C[C@@H](O)C[C@@H](O)[C@H](O)CC[C@@H](O)C[C@@H](O)CC(=O)O[C@H]1C)C[C@H](O)[C@H]2C(=O)O"
  log10 of MIC: 1.20
- Compound: "OCCNCc1ccc(-c2ccc(OCC(O)(Cn3cncn3)c3ccc(F)cc3F)cc2)cc1 (stereo not given)"
  log10 of MIC: 1.20
- Compound: "CCCCCCCNc1ccc(-c2ccc(OCC(O)(Cn3cncn3)c3ccc(F)cc3F)cc2)cn1 (stereo not given)"
  log10 of MIC: 0.00
- Compound: "CN(Cc1ccc(-c2ccc(OCC(O)(Cn3cncn3)c3ccc(F)cc3F)cc2)cc1)c1ccccc1 (stereo not given)"
  log10 of MIC: 1.20
- Compound: "O=C(CN1CCNCC1)Nc1ccc(-c2ccc(OCC(O)(Cn3cncn3)c3ccc(F)cc3F)cc2)cn1 (stereo not given)"
  log10 of MIC: 0.00
- Compound: "CNCc1ccc(-c2ccc(OCC(O)(Cn3cncn3)c3ccc(F)cc3F)cc2)cc1 (stereo not given)"
  log10 of MIC: 0.60
- Compound: "Cc1cccc(C(=O)Nc2ccc(-c3ccc(OCC(O)(Cn4cncn4)c4ccc(F)cc4F)cc3)cn2)c1 (stereo not given)"
  log10 of MIC: 0.00
- Compound: "CCN(CC)Cc1ccc(C(=O)Nc2ccc(-c3ccc(OCC(O)(Cn4cncn4)c4ccc(F)cc4F)cc3)cn2)cc1 (stereo not given)"
  log10 of MIC: -0.60
- Compound: "CN(C/C=C/C#CC(C)(C)C)Cc1cccc2ccccc12"
  log10 of MIC: -1.20
- Compound: "O=C(CCl)Nc1ccc(-c2ccc(OCC(O)(Cn3cncn3)c3ccc(F)cc3F)cc2)cn1 (stereo not given)"
  log10 of MIC: 0.00
- Compound: "Cc1ccc(C(=O)Nc2ccc(-c3ccc(OCC(O)(Cn4cncn4)c4ccc(F)cc4F)cc3)cn2)cc1 (stereo not given)"
  log10 of MIC: 0.00
- Compound: "Nc1ccc(-c2ccc(OCC(O)(Cn3cncn3)c3ccc(F)cc3F)cc2)cn1 (stereo not given)"
  log10 of MIC: -1.20
- Compound: "Oc1ccc(CNc2ccc(-c3ccc(OCC(O)(Cn4cncn4)c4ccc(F)cc4F)cc3)cn2)cc1 (stereo not given)"
  log10 of MIC: 0.00
- Compound: "C[C@@H]1COC[C@H](C)N1Cc1ccc(C(=O)Nc2ccc(-c3ccc(OCC(O)(Cn4cncn4)c4ccc(F)cc4F)cc3)cn2)cc1 (stereo not given in full)"
  log10 of MIC: 1.20
- Compound: "CCNCc1ccc(-c2ccc(OCC(O)(Cn3cncn3)c3ccc(F)cc3F)cc2)cc1 (stereo not given)"
  log10 of MIC: 0.00
- Compound: "CN(C)Cc1ccc(-c2ccc(OCC(O)(Cn3cncn3)c3ccc(F)cc3F)cc2)cc1 (stereo not given)"
  log10 of MIC: 0.60
- Compound: "OC(COc1ccc(-c2ccc(NCc3cccc(Cl)c3)nc2)cc1)(Cn1cncn1)c1ccc(F)cc1F (stereo not given)"
  log10 of MIC: 0.60
- Compound: "CC(C)NCc1ccc(-c2ccc(OCC(O)(Cn3cncn3)c3ccc(F)cc3F)cc2)cc1 (stereo not given)"
  log10 of MIC: 0.60
- Compound: "CNCC(=O)Nc1ccc(-c2ccc(OCC(O)(Cn3cncn3)c3ccc(F)cc3F)cc2)cn1 (stereo not given)"
  log10 of MIC: 0.00
- Compound: "O=C(Nc1ccc(-c2ccc(OCC(O)(Cn3cncn3)c3ccc(F)cc3F)cc2)cn1)c1ccc(CN2CCCCC2)cc1 (stereo not given)"
  log10 of MIC: 0.00
- Compound: "CCNc1ccc(-c2ccc(OCC(O)(Cn3cncn3)c3ccc(F)cc3F)cc2)cn1 (stereo not given)"
  log10 of MIC: 0.00
- Compound: "C[C@@H](c1ncncc1F)[C@](O)(Cn1cncn1)c1ccc(F)cc1F"
  log10 of MIC: -1.20
- Compound: "O=C(CN1CCCCC1)Nc1ccc(-c2ccc(OCC(O)(Cn3cncn3)c3ccc(F)cc3F)cc2)cn1 (stereo not given)"
  log10 of MIC: 0.00
